Parameter Binding to 1 nM KDR, %: see the listing below.
# measuredTarget: T1, human vascular endothelial growth factor receptor-2 Fc chimera (KDR-Fc) (human, UniProt P35968 20-764)
# T1 construct: range 1-764; also called human VEGFR-2; not shown: human IgG1 Fc
# T1 sequence (P35968 20-764 limits assumed, change not shown, form in doubt): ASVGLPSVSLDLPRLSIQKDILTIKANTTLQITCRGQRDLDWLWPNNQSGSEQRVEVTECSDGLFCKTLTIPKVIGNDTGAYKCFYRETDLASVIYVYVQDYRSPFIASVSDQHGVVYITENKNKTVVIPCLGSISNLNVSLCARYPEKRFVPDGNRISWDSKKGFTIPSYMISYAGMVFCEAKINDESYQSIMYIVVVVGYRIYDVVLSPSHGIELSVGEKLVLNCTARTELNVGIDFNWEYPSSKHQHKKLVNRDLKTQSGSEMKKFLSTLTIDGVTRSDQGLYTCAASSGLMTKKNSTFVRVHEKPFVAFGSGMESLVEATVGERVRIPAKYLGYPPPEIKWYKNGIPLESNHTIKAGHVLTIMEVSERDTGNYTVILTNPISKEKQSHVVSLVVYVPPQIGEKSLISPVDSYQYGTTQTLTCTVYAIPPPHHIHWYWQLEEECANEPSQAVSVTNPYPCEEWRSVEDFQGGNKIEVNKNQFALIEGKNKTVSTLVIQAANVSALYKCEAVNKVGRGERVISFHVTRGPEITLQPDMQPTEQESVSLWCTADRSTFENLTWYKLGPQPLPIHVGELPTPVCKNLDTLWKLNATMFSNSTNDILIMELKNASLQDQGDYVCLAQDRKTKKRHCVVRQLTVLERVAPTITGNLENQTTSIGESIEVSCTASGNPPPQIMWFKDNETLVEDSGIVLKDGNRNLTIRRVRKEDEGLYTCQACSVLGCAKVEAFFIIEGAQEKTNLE
# assayMethodText: radioactive equilibrium binding assay, 1 nM KDR-Fc, % of input bound
The reply should be a number in %, with the unit left off.

Solved entries:
{"binder": "G4 (designed binder, 10Fn3 clone, Del 1-8) EVVAATPTSLLISWRHPHFPTRYYRITYGETGGNSPVQEFTVPLQPPTATISGLKPGVDYTITGYAVTIEKNGRHLNIPISINYRT", "metric": "Binding to 1 nM KDR, %", "unitTag": "%", "assayResult": 21}
{"binder": "A8 (designed binder, 10Fn3 clone, Del 1-8) EVVAATPTSLLISWRHPHFPTRYYRITYGETGGNSPVQEFTVPLQPPTATISGLKPGVDYTITGYAVTDGLNGKYLFVPISINYRT", "metric": "Binding to 1 nM KDR, %", "unitTag": "%", "assayResult": 38}
{"binder": "E22 (designed binder, 10Fn3 clone, Del 1-8) EVVAATPTSLLISWRHPHFPTRYYRITYGETGGNSPVQEFTVPLQPPTATISGLKPGVDYTITGYAVTLGRNDRELLTPISINYRT", "metric": "Binding to 1 nM KDR, %", "unitTag": "%", "assayResult": 45}
{"binder": "G1 (designed binder, 10Fn3 clone, Del 1-8) EVVAATPTSLLISWRHPHFPTRYYRITYGETGGNSPVQEFTVPLQPPTATISGLKPGVDYTITGYAVTEGRNGRELMVPISINYRT", "metric": "Binding to 1 nM KDR, %", "unitTag": "%", "assayResult": 22}
{"binder": "D1 (designed binder, 10Fn3 clone, Del 1-8) EVVAATPTSLLISWRHPHFPTRYYRITYGETGGNSPVQEFTVPLQPPTATISGLKPGVDYTITGYAVTVERNGRMLMTPISINYRT", "metric": "Binding to 1 nM KDR, %", "unitTag": "%", "assayResult": 38}
{"binder": "FE (designed binder) EVVAATPTSLLISWRHPHFPTRYYRITYGETGGNSPVQEFTVPLQPPTATISGLKPGVDYTITGYAVTVERDGRELNIPISINYRT", "metric": "Binding to 1 nM KDR, %", "unitTag": "%", "assayResult": 12}
{"binder": "C1 (designed binder, 10Fn3 clone, Del 1-8) EVVAATPTSLLISWRHPHFPTRYYRITYGETGGNSPVQEFTVPLQPPTATISGLKPGVDYTITGYAVTQERNGRELRTPISINYRT", "metric": "Binding to 1 nM KDR, %", "unitTag": "%", "assayResult": 28}
{"binder": "EGE11 (SEQ ID NO 87) (designed binder) EVVAATPTSLLISWRHPHFPTRYYRITYGETGGNSPVQEFTVPLQPPTATISGLKPGVDYTITGYAVTMGKNDRELLTPISINYRT", "metric": "Binding to 1 nM KDR, %", "unitTag": "%", "assayResult": 32}
{"binder": "C11 (designed binder, 10Fn3 clone, Del 1-8) EVVAATPTSLLISWRHPHFPTRYYRITYGETGGNSPVQEFTVPLQPPTATISGLKPGVDYTITGYAVTVERNGRVLIVPISINYRT", "metric": "Binding to 1 nM KDR, %", "unitTag": "%", "assayResult": 19}
{"binder": "A10 (designed binder, 10Fn3 clone, Del 1-8) EVVAATPTSLLISWRHPHFPTRYYRITYGETGGNSPVQEFTVPLQPPTATISGLKPGVDYTITGYAVTFGWNGRELLTPISINYRT", "metric": "Binding to 1 nM KDR, %", "unitTag": "%", "assayResult": 34}

Lookup: State, in one line, measured Binding to 1 nM KDR, % of EGE6 (designed binder, 10Fn3 clone, Del 1-8) EVVAATPTSLLISWRHPHFPTRYYRITYGETGGNSPVQEFTVPLQPPTATISGLKPGVDYTITGYAVTLERNGRLLNTPISINYRT
Found: 33

Lookup: Give Binding to 1 nM KDR, % for A3 (designed binder, 10Fn3 clone, Del 1-8) EVVAATPTSLLISWRHPHFPTRYYRITYGETGGNSPVQEFTVPLQPPTATISGLKPGVDYTITGYAVTDGWNGKMLSVPISINYRT
Found: 33

Lookup: Read the entry D9 (designed binder, 10Fn3 clone, Del 1-8) EVVAATPTSLLISWRHPHFPTRYYRITYGETGGNSPVQEFTVPLQPPTATISGLKPGVDYTITGYAVTEERNGRVLFTPISINYRT and write its reported Binding to 1 nM KDR, %.
Found: 31

Lookup: Write down Binding to 1 nM KDR, % measured for item E23 (designed binder, 10Fn3 clone, Del 1-8) EVVAATPTSLLISWRHHPHFPTRYYRITYGETGGNSPVQEFTVPLQPPTATISGLKPGVDYTITGYAVTVHWNGRELMTPISINYRT
Found: 36

Lookup: Fill in Binding to 1 nM KDR, % for record E10 (designed binder) EVVAATPTSLLISWRHPHFPTRYYRITYGETGGNSPVQEFTVPLQPPTATISGLKPGVDYTITGYAVTEGRNGRELFIPISINYRT
Found: 53
